target: fMet-Leu-Phe receptor (Homo sapiens, UniProt P21462); test: Antagonist activity against FPR1 (unknown origin) transfected in human HL60 cells assessed as calcium mobilization preincubated for 30 mins followed by fMLF addition and measured for 5 sec for 240 sec by fluorometry; type: functional, cell-based
Sequence (P21462 whole entry): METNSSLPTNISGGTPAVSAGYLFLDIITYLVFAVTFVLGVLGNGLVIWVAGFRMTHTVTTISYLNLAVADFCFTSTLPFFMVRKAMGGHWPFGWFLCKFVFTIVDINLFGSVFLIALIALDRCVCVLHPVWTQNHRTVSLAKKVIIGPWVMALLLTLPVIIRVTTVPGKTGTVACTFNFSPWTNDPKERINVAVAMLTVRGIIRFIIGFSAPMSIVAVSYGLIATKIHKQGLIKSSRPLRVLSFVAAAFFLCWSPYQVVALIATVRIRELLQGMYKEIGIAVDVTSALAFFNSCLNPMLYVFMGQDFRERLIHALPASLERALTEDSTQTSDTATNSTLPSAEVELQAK
pIC50: −log10 of the molar value. Non-standard residues stand in square brackets, D forms with d. Residues, ends and D or L forms follow the SMILES beside them. *: point of attachment. dCha = N[C@H](CC1CCCCC1)C(=O)O; Bz = O=C(c1ccccc1)*
Assay Metric: pIC50

(P) COC(=O)[C@@H](Cc1ccccc1)NC(=O)[C@H](Cc1c[nH]c2ccccc12)NC(=O)c1ccccc1
(Q) COC(=O)[C@@H](Cc1ccccc1)NC(=O)[C@H](Cc1c[nH]c2ccccc12)NC(=O)OC(C)(C)C
Q: Between P and Q , which one has the lower reported pIC50 value? Which one? Tell me its label.
Result: Q

(I) COC(=O)[C@H](Cc1ccccc1)NC(=O)[C@@H](Cc1c[nH]c2ccccc12)NC(=O)c1ccccc1
(II) COC(=O)[C@@H](Cc1ccccc1)NC(=O)[C@H](Cc1c[nH]c2ccccc12)NC(=O)CC(C)C
Q: Select one: I or II . Criterion: greater recorded pIC50. Which one? Tell me its label.
Result: II

(1) COC(=O)[C@@H](CC(C)C)NC(=O)[C@H](Cc1c[nH]c2ccccc12)NC(=O)c1ccccc1
(2) COC(=O)[C@@H](Cc1ccccc1)NC(=O)[C@H](Cc1c[nH]c2ccccc12)NC(=O)C1CCCCC1
(3) COC(=O)[C@H](NC(=O)[C@H](Cc1c[nH]c2ccccc12)NC(=O)c1ccccc1)C(C)C
(4) COC(=O)[C@H](Cc1ccccc1)NC(=O)[C@H](Cc1c[nH]c2ccccc12)NC(=O)c1ccccc1
Q: Given 4 molecules, produce a descending ranking by pIC50. Respond with an ordered listing of the labels, as requested.
Result: 2, 4, 3, 1

(P) COC(=O)[C@@H](Cc1ccccc1)NC(=O)[C@@H](Cc1c[nH]c2ccccc12)NC(=O)c1ccccc1
(Q) COC(=O)[C@@H](CC1CCCCC1)NC(=O)[C@H](Cc1c[nH]c2ccccc12)NC(=O)c1ccccc1 (Bz-Trp-[dCha]-OMe)
Q: Between P and Q , which one has the lower reported pIC50 value? Which one? Tell me its label.
Result: P

----------
molecular target: N-formyl peptide receptor 2 (Homo sapiens, UniProt P25090); assay: Agonist activity at FRP2 (unknown origin) transfected in human HL60 cells assessed as calcium mobilization incubated for 30 mins and measured for 5 sec for 240 sec by fluorometry; assay type: functional, cell-based
Sequence (P25090 whole entry): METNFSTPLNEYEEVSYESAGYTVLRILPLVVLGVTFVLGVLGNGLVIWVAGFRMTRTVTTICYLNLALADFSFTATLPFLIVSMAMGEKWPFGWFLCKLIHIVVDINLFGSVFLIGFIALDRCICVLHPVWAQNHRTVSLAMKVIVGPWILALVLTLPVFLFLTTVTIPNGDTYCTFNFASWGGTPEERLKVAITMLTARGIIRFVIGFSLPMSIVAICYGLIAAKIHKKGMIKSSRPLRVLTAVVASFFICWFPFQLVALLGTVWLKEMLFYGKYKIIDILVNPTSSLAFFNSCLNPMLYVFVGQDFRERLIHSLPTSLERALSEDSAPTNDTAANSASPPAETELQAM
Non-standard residues stand in square brackets, D forms with d. Residues, ends and D or L forms follow the SMILES beside them. *: point of attachment. dCha = N[C@H](CC1CCCCC1)C(=O)O; Bz = O=C(c1ccccc1)*
Assay Metric: EC50

Solved entries:
COC(=O)[C@H](Cc1ccccc1)NC(=O)[C@@H](Cc1c[nH]c2ccccc12)NC(=O)c1ccccc1
Not Active
COC(=O)[C@H](Cc1ccccc1)NC(=O)[C@H](Cc1c[nH]c2ccccc12)NC(=O)c1ccccc1
Not Active
COC(=O)[C@@H](Cc1ccccc1)NC(=O)[C@H](Cc1c[nH]c2ccccc12)NC(=O)C1CCCCC1
Not Active
COC(=O)[C@@H](Cc1ccccc1)NC(=O)[C@H](Cc1c[nH]c2ccccc12)NC(=O)CC(C)C
Not Active

Q: Given the compound COC(=O)[C@@H](CC1CCCCC1)NC(=O)[C@H](Cc1c[nH]c2ccccc12)NC(=O)c1ccccc1 (Bz-Trp-[dCha]-OMe) , what is its reported EC50?
Result: Not Active

Q: Given the compound COC(=O)[C@H](NC(=O)[C@H](Cc1c[nH]c2ccccc12)NC(=O)c1ccccc1)C(C)C , what is its reported EC50?
Result: Not Active

Q: Given the compound COC(=O)[C@@H](Cc1ccccc1)NC(=O)[C@H](Cc1c[nH]c2ccccc12)NC(=O)c1ccccc1 , what is its reported EC50?
Result: Not Active

Q: Given the compound COC(=O)[C@@H](Cc1ccccc1)NC(=O)[C@@H](Cc1c[nH]c2ccccc12)NC(=O)c1ccccc1 , what is its reported EC50?
Result: Not Active

The measurements presented in this section are drawn from ChEMBL document CHEMBL4373681.
